# Test system: RPMI-8226 leukemia
# Assay Text: NCI tumour cell line growth inhibition, 48 h
# reported TGI; entries follow
Value Type: TGI

INSERT INTO measurements (compound, target_under_test, result) VALUES
  ('CCC(=O)Nc1ccc(N2C(=O)/C(=C/c3ccc(O)c(OC)c3)N=C2c2ccccc2)cc1', 'RPMI-8226 leukemia', '> 100 µM'),
  ('CCOC(=O)/C(C1=N[C@H](C(=O)OCC)CS1)=C(\O)c1ccccc1', 'RPMI-8226 leukemia', '> 100 µM'),
  ('CC(C)C(=O)/C=C/c1ccccc1', 'RPMI-8226 leukemia', '> 100 µM'),
  ('CC(=O)CCCCCCCCCCCC[C@@H]1CC[C@H](C)[C@H](O)N1', 'RPMI-8226 leukemia', '> 100 µM'),
  ('C=C(C)C(=O)O[C@H]1CC2(CO)O[C@@H]2CC/C(COC(C)=O)=C/C2OC(=O)C(=C)[C@@H]21 (stereo not given in full)', 'RPMI-8226 leukemia', '31.3 µM');

----------
# System: NCI-H460 lung
# Assay Text: NCI tumour cell line growth inhibition, 48 h
Value Type: TGI (µM)

INSERT INTO results (compound, unit_text, comparator, quantitative_result) VALUES
  ('N#Cc1c(C(=O)c2ccccc2)cnn1-c1ccccc1', 'µM', '>', 25),
  ('CCCOC1OC(CS(=O)(=O)O)C(OC(C)=O)C(OC(C)=O)C1OC(C)=O (stereo not given)', 'µM', '>', 100),
  ('N#CC(NNC(=O)c1ccccc1O)c1ccc(O)cc1 (stereo not given)', 'µM', '>', 100),
  ('C1CC[N-]CC1.C1CC[N-]CC1.C1CC[N-]CC1.C1CC[N-]CC1.[Cl][Rh][Cl]', 'µM', '=', 26.5),
  ('CCCCn1c2cc(OCc3cn(-c4ccc(Cl)cc4)nn3)ccc2c2ccnc(C)c21', 'µM', '=', 18.6),
  ('COc1ccccc1-[n+]1cc(-c2ccc(-c3ccccc3)cc2)n2c1CCCCC2', 'µM', '=', 11.5),
  ('CCOc1ccccc1N=NC1C(=O)N(C(=O)CC(=O)Nc2ccccc2OC)N=C1C (stereo not given)', 'µM', '>', 100),
  ('O=Cc1c(-c2cc(O)ccc2O)nc2sccn12', 'µM', '=', 40.8),
  ('Cc1c(N=Nc2ccc([N+](=O)[O-])cc2)nc2scc(-c3ccccc3)n12', 'µM', '>', 100),
  ('O=C1c2ccccc2C2(c3ccc(Cl)cc3)N[C@@H]3CCCC[C@@H]3N12 (stereo not given in full)', 'µM', '>', 100);

----------
# System: MDA-N
# Assay Text: NCI tumour cell line growth inhibition, 48 h
# reported TGI; entries follow
Value Type: TGI

INSERT INTO assay_data (compound, result) VALUES
  ('CCCC1c2c(ccc3ccccc23)Oc2ccc3ccccc3c21', '> 100 µM'),
  ('C=C(C)[C@@H]1CC[C@]2(C(=O)OC3OC(COC4OC(CO)C(OC5OC(C)C(O)C(O)C5O)C(O)C4O)C(O)C(O)C3O)CC[C@]3(C)[C@H](CC[C@@H]4[C@@]5(C)CC[C@H](O)[C@@](C)(CO)[C@@H]5CC[C@]43C)[C@@H]12 (some centres undefined)', '> 10 µM'),
  ('COc1ccc(/C=N/N=C(\N)NO)c(OC)c1OC', '> 100 µM'),
  ('CC(=O)Nc1nc(C)c(S(=O)(=O)NC(=O)N2c3ccccc3CCc3ccccc32)s1', '> 100 µM');
